A collection of binders and their measured Relative Binding (IC50 of test sample divided by IC50 of mouse antibody)
test target: human CD4 (coated on ELISA plate) (human, UniProt P01730 26-396, limits assumed)
protocol details: competition ELISA, plate-coated human CD4, competitor biotinylated mouse antibody at 0.2 µg/ml
measure: Relative Binding (IC50 of test sample divided by IC50 of mouse antibody)

[
  {
    "binder": "modified anti-CD4 antibody VH4/VK4 (antibody, V domains shown) VH: EVQLQQSGTELKRPGASVKMSCKASGYTFANYWMHWVKQAPGQGLQWIGALYPGNVDTTYNQKFKDKAKLTAVTSASTAYMELSSLTNEDSAVYYCTRMGTTLEAPLDYWGQGTTVTVSS VL: QIVLTQSPAILSASPGEKAAMTCSARSSVSYLYWYQQKPGSSPRLLIYDTSNLASGVPSRFIGSGSGTDYSLTISSMEAEDAATYYCQQWSDYPLTFGAGTKLEIK",
    "result": "0.49 fold"
  },
  {
    "binder": "modified anti-CD4 antibody VH3/VK2 (antibody, V domains shown) VH: EVQLQQSGSELKRPGASVKMSCKASGYTFANYWMHWVKQAPGQGLQWIGALYPGNVDTTYNQKFKDKAKLTAVTSASTAYMELSSLTNEDTAVYYCTRMGTTLEAPLDYWGQGTLVTVSS VL: QIVLTQSPATLSASPGEKAAMTCSARSSVSYLYWYQQKPGSSPRLLIYDTSNLASGVPSRFSGSGSGTDYSLTISSMEAEDAATYYCQQWSDYPLTFGAGTKLEIK",
    "result": "1.77 fold"
  }
]
